- System: P. aeruginosa strain CFS-1292
- assay.name: MIC at pH 6, pH 7 and pH 8
- Type: cell-based, Pseudomonas aeruginosa
- test.conditions: CAA media (pH 7)
assay.readout: MIC (µg/mL)
API: value field is a number in µg/mL; no unit string.

sequence.input | MIC, µg/mL
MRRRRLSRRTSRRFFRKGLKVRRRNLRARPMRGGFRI [Unp2] | 0.5
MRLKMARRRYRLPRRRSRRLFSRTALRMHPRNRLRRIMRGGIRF [Chp2] | 0.25
MVRRRRLRRRISRRIFRRTVARVGRRRRSFRGGIRF [Chp1] | 1

input: Form: Entry = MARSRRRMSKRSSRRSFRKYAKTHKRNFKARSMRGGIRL [Ecp1] | System = P. aeruginosa strain CFS-1292 | MIC = ____
output: 0.5

input: Form: Entry = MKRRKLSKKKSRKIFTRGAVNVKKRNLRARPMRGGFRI [Chp10] | System = P. aeruginosa strain CFS-1292 | MIC = ____
output: 0.5

From: patent US20220401514A1
